assay comment: cAMP Responsive Elements (CRE) small molecule agonists, cell-based qHTS assay: qHTS cell viability counter screen (AID 2060914);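 further: viability read after 3 h of compound exposure; on the % scale 0 is the no-effect control and ±100 the full control effect; nearly all actives have a fitted effect of over 50% in size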
condition description: CRE-bla HEK293T viability, CellTiter-Glo luminescence, 5 h; series mostly up to 92.4 µM
Records with an inconclusive call do not appear. Activity calls are given as the source filed them. The call rests on the fitted dose curve; in most records, active means well fitted cell-killing curve with a large enough effect in the repeat runs; inconclusive means weak or mixed curves, or effect the other way; inactive means flat fitted curve, though single readings scatter.
measured property: activity change, negative = cytotoxicity

molecule=CCCCCCCCOCCCN measured_property="activity change, negative = cytotoxicity" endpoint_value=inactive
molecule=Cc1cc(C)c(C(=O)O)c(C)c1 measured_property="activity change, negative = cytotoxicity" endpoint_value=inactive
molecule=CCCCCCCCS measured_property="activity change, negative = cytotoxicity" endpoint_value=inactive
molecule=CC(=O)N(O)CCCCCNC(=O)CCC(=O)N(O)CCCCCNC(=O)CCC(=O)N(O)CCCCCN measured_property="activity change, negative = cytotoxicity" endpoint_value=inactive
molecule="NCC1CCC(C(=O)Oc2ccc(CCC(=O)O)cc2)CC1 (centres undefined)" measured_property="activity change, negative = cytotoxicity" endpoint_value=inactive
molecule="OCc1cc(C(O)CNCCCCCCOCCCCc2ccccc2)ccc1O (centres undefined)" measured_property="activity change, negative = cytotoxicity" endpoint_value=inactive
molecule=N#CSCSc1nc2ccccc2s1 measured_property="activity change, negative = cytotoxicity" endpoint_value=inactive
molecule="CN1CCCN=C1COC(=O)C(O)(c1ccccc1)C1CCCCC1 (centres undefined)" measured_property="activity change, negative = cytotoxicity" endpoint_value=inactive
molecule=C1COC(NC(C2CC2)C2CC2)=N1 measured_property="activity change, negative = cytotoxicity" endpoint_value=inactive
molecule=CCCCCCCCCCCCS measured_property="activity change, negative = cytotoxicity" endpoint_value=inactive
molecule="O=C(O)C1CCC(C(=O)O)CC1 (centres undefined)" measured_property="activity change, negative = cytotoxicity" endpoint_value=inactive
molecule=CCCCCCCCCCCCCCCCCCO measured_property="activity change, negative = cytotoxicity" endpoint_value=inactive
molecule=CNc1ccc([N+](=O)[O-])cc1 measured_property="activity change, negative = cytotoxicity" endpoint_value=inactive
molecule=COc1ncnc(NS(=O)(=O)c2ccc(N)cc2)c1OC measured_property="activity change, negative = cytotoxicity" endpoint_value=inactive

---

assay comment: cAMP Responsive Elements (CRE) small molecule agonists, cell-based qHTS assay: qHTS cell viability counter screen (AID 2060914);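 further: viability read after 3 h of compound exposure; on the % scale 0 is the no-effect control and ±100 the full control effect; nearly all actives have a fitted effect of over 50% in size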
condition description: CRE-bla HEK293T viability, CellTiter-Glo luminescence, 5 h; series mostly up to 92.4 µM
Results filed as inconclusive are left out. The source made the active and inactive calls. Calls come from the whole dose curve; as a rule, active = well fitted cell-killing curve with a large enough effect in the repeat runs; inconclusive = weak or mixed curves, or effect the other way; inactive = flat fitted curve, though single readings scatter.
measured property: activity change, negative = cytotoxicity

compound="COCCOC[C@H](CC1(C(=O)NC2CCC(C(=O)O)CC2)CCCC1)C(=O)Oc1ccc2c(c1)CCC2 (stereo partly drawn)" measured_property="activity change, negative = cytotoxicity" endpoint_value=inactive
compound=C/C(=C(\CCOP(=O)(O)O)SC(=O)c1ccccc1)N(C=O)Cc1cnc(C)nc1N measured_property="activity change, negative = cytotoxicity" endpoint_value="-13.5% [at 8.39 µM] (inactive)"
compound=COc1ccc(NC(C)=O)cc1N measured_property="activity change, negative = cytotoxicity" endpoint_value=inactive
compound=CC(C)c1cccc(O)c1 measured_property="activity change, negative = cytotoxicity" endpoint_value=inactive
compound=CC(C)CC(C)(C)C measured_property="activity change, negative = cytotoxicity" endpoint_value=inactive
compound=O=C1OC(=O)c2c(Br)c(Br)c(Br)c(Br)c21 measured_property="activity change, negative = cytotoxicity" endpoint_value=inactive
compound=CC(C)(C)C(=O)C1C(=O)c2ccccc2C1=O measured_property="activity change, negative = cytotoxicity" endpoint_value=inactive
compound="Cc1ccc(Cl)c(OCC(O)CNC(C)(C)C)c1 (stereo not drawn)" measured_property="activity change, negative = cytotoxicity" endpoint_value=inactive
compound=C=CCOc1c(Br)cc(C(C)(C)c2cc(Br)c(OCC=C)c(Br)c2)cc1Br measured_property="activity change, negative = cytotoxicity" endpoint_value=inactive
compound=C=C1C(=C/C=C2\CCC[C@]3(C)[C@@H]([C@H](C)/C=C/[C@@H](O)C4CC4)CC[C@@H]23)C[C@@H](O)C[C@@H]1O measured_property="activity change, negative = cytotoxicity" endpoint_value=inactive
compound=O=C(O)CCCC(=O)O measured_property="activity change, negative = cytotoxicity" endpoint_value=inactive
compound=COc1ccc(C(=O)c2ccc(OC)cc2O)c(O)c1 measured_property="activity change, negative = cytotoxicity" endpoint_value=inactive
compound=CC(=O)N[C@@H](CC(C)C)C(=O)O measured_property="activity change, negative = cytotoxicity" endpoint_value=inactive
compound=c1cc[c]([Bi]([c]2ccccc2)[c]2ccccc2)cc1 measured_property="activity change, negative = cytotoxicity" endpoint_value=inactive
compound="COc1ccccc1OCC1CNC(=O)O1 (stereo not drawn)" measured_property="activity change, negative = cytotoxicity" endpoint_value=inactive
compound=ClC1=C(Cl)C(Cl)(Cl)C(Cl)=C1Cl measured_property="activity change, negative = cytotoxicity" endpoint_value=inactive
compound=Nc1nc(-c2ccc([N+](=O)[O-])cc2)cs1 measured_property="activity change, negative = cytotoxicity" endpoint_value=inactive
compound="CCCCC(CC)COS(=O)(=O)O (stereo not drawn)" measured_property="activity change, negative = cytotoxicity" endpoint_value=inactive
compound=C/C(=N\[Si](C)(C)C)O[Si](C)(C)C measured_property="activity change, negative = cytotoxicity" endpoint_value=inactive
compound=C=CC(=O)NC(C)C measured_property="activity change, negative = cytotoxicity" endpoint_value=inactive
compound="CC(C)NCC(O)c1ccc2ccccc2c1 (stereo not drawn)" measured_property="activity change, negative = cytotoxicity" endpoint_value=inactive
compound=F[B-](F)(F)F measured_property="activity change, negative = cytotoxicity" endpoint_value=inactive
compound=NC(=O)c1cnccn1 measured_property="activity change, negative = cytotoxicity" endpoint_value=inactive
compound=Cc1ccc(O)c([C@H](CCN(C(C)C)C(C)C)c2ccccc2)c1 measured_property="activity change, negative = cytotoxicity" endpoint_value=inactive
compound="CC(COc1ccccc1)NC(C)C(O)c1ccc(O)cc1 (stereo not drawn)" measured_property="activity change, negative = cytotoxicity" endpoint_value=inactive
compound=C=C(C)C(=O)OCC(C)(C)COC(=O)C(=C)C measured_property="activity change, negative = cytotoxicity" endpoint_value=inactive
compound=c1ccccc1 measured_property="activity change, negative = cytotoxicity" endpoint_value=inactive
compound=O=C(/C=C/c1ccccc1)NCCO measured_property="activity change, negative = cytotoxicity" endpoint_value=inactive

---

assay comment: cAMP Responsive Elements (CRE) small molecule antagonists, cell-based qHTS assay: qHTS cell viability counter screen (AID 2060913); further: potency means the concentration at half of the fitted maximal effect; nearly all actives have a fitted effect of over 40% in size
condition description: CRE-bla HEK293T viability, CellTiter-Glo luminescence, 5 h; series mostly up to 92.4 µM
Inconclusive results are not listed. The source made the active and inactive calls. The call rests on the fitted dose curve; in most records, active means well fitted cell-killing curve with a large enough effect in the repeat runs; inconclusive means weak or mixed curves, or effect the other way; inactive means flat fitted curve, though single readings scatter.
Collected Potency values appear next to each entry.
measured property: Potency

compound=COc1cc(-c2nc(NC(=O)c3cc4cc(C)cc(C)c4n3CC(=O)O)sc2CCC2CCCCC2)c(OC)cc1Cl measured_property=Potency endpoint_value="25 µM (active)"
compound=CC/C(=C(/c1ccc(O)cc1)c1ccc(OCCN(C)C)cc1)c1ccccc1 measured_property=Potency endpoint_value="37.6 µM (active)"
compound="C=C(C)C(=O)OCC(O)COc1ccc(C(C)(C)c2ccc(OCC(O)COC(=O)C(=C)C)cc2)cc1 (stereo not drawn)" measured_property=Potency endpoint_value="61.1 µM (active)"

---

assay comment: cAMP Responsive Elements (CRE) small molecule agonists, cell-based qHTS assay: qHTS cell viability counter screen (AID 2060914);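 further: viability read after 3 h of compound exposure; on the % scale 0 is the no-effect control and ±100 the full control effect; nearly all actives have a fitted effect of over 50% in size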
condition description: CRE-bla HEK293T viability, CellTiter-Glo luminescence, 5 h; series mostly up to 92.4 µM
Inconclusive results are not listed. The source made the active and inactive calls. The call rests on the fitted dose curve; in most records, active means well fitted cell-killing curve with a large enough effect in the repeat runs; inconclusive means weak or mixed curves, or effect the other way; inactive means flat fitted curve, though single readings scatter.
measured property: activity change, negative = cytotoxicity

compound=O=C(NC1CCN(CCc2c[nH]c3ccccc23)CC1)c1ccccc1 endpoint_value=inactive
compound="CC(=O)CC(c1ccc([N+](=O)[O-])cc1)c1c(O)c2ccccc2oc1=O (stereo not drawn)" endpoint_value=inactive
compound=Nc1ccc(Oc2ccc(N)c(N)c2)cc1 endpoint_value=inactive
compound=CCOB(OCC)OCC endpoint_value=inactive
compound="CC1CN(c2ccccc2)NC1=O (stereo not drawn)" endpoint_value=inactive
compound=COc1ccc2cc([C@H](C)C(=O)O)ccc2c1 endpoint_value=inactive
compound=COc1ccc(C)cc1 endpoint_value=inactive
compound=CC(=O)Nc1ccc(N)cc1 endpoint_value=inactive
compound=C=C(C)C(=O)OCCOC(=O)CC(C)=O endpoint_value=inactive
compound=C=C[C@@H](C)CCC=C(C)C endpoint_value=inactive
compound=OCCCCCO endpoint_value=inactive
compound="O=C(O)C(S)C(S)C(=O)O (stereo not drawn)" endpoint_value=inactive
compound=COc1ccc(CCC(=O)c2c(O)cc(O[C@@H]3O[C@H](CO)[C@@H](O)[C@H](O)[C@H]3O[C@@H]3O[C@@H](C)[C@H](O)[C@@H](O)[C@H]3O)cc2O)cc1O endpoint_value=inactive

---

assay comment: cAMP Responsive Elements (CRE) small molecule agonists, cell-based qHTS assay: qHTS cell viability counter screen (AID 2060914);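 further: viability read after 3 h of compound exposure; on the % scale 0 is the no-effect control and ±100 the full control effect; nearly all actives have a fitted effect of over 50% in size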
condition description: CRE-bla HEK293T viability, CellTiter-Glo luminescence, 5 h; series mostly up to 92.4 µM
Records with an inconclusive call do not appear. Active and inactive are the calls of the source. Calls follow the shape of the dose curve; as a rule, active = well fitted cell-killing curve with a large enough effect in the repeat runs; inconclusive = weak or mixed curves, or effect the other way; inactive = flat fitted curve, though single readings scatter.
measured property: activity change, negative = cytotoxicity

molecule=CCOC(=O)CS measured_property="activity change, negative = cytotoxicity" endpoint_value=inactive
molecule=S=C([S-])NCCNC(=S)[S-].S=C([S-])NCCNC(=S)[S-].[Mn+2].[Zn+2] measured_property="activity change, negative = cytotoxicity" endpoint_value=inactive
molecule=CC(=O)[C@H]1CC[C@H]2[C@@H]3CCC4=CC(=O)CC[C@]4(C)[C@H]3CC[C@]12C measured_property="activity change, negative = cytotoxicity" endpoint_value=inactive
molecule=COC(=O)c1ccc(I)cc1S(=O)(=O)NC(=O)Nc1nc(C)nc(OC)n1 measured_property="activity change, negative = cytotoxicity" endpoint_value=inactive
molecule=C=C/C(C)=C/C/C=C(\C)CCC=C(C)C measured_property="activity change, negative = cytotoxicity" endpoint_value=inactive
molecule=C=CC(=C)CC/C=C(\C)CCC=C(C)C measured_property="activity change, negative = cytotoxicity" endpoint_value="-3.29% [at 18.9 µM] (inactive)"
molecule=CC(C)=CC(=O)C=C(C)C measured_property="activity change, negative = cytotoxicity" endpoint_value=inactive
molecule=CCN(CCCc1ccccc1)CCCc1ccccc1 measured_property="activity change, negative = cytotoxicity" endpoint_value=inactive
molecule=CNCCO measured_property="activity change, negative = cytotoxicity" endpoint_value=inactive
molecule=O=S(=O)(O)c1cc(O)c2ccc(Nc3ccccc3)cc2c1 measured_property="activity change, negative = cytotoxicity" endpoint_value=inactive
molecule="CCC(O)CO (stereo not drawn)" measured_property="activity change, negative = cytotoxicity" endpoint_value=inactive
molecule=Cc1nnc(SCC2=C(C(=O)O)N3C(=O)[C@@H](NC(=O)Cn4cnnn4)[C@H]3SC2)s1 measured_property="activity change, negative = cytotoxicity" endpoint_value=inactive
molecule=C=C[Si](OC(C)=O)(OC(C)=O)OC(C)=O measured_property="activity change, negative = cytotoxicity" endpoint_value=inactive
